experiment: CD spectroscopy and thermal denaturation of chimeric N-trimers; assay type: physicochemical; conditions: CD, PBS pH 7.4, 10 μM peptide
Bridge positions count the residues as written; N and C are the ends. I, II: the chains in the order shown.
RECORDED_METRIC: Helicity (%)

{"columns": ["SUBSTANCE", "NUMERIC_READOUT"],
 "data": [
  ["I: Ac-EQEAIKKKIEAIEKAIEAQQHLLQLTVWGIKQLQARIL-NH2 / II: Ac-EQEAIKKKIEAIEKAIEAQQHLLQLTVWGIKQLQARIL-NH2 / III: Ac-EQEAIKKKIEAIEKAIEAQQHLLQLTVWGIKQLQARIL-NH2 (amide I:8-III:13, I:13-II:8, II:13-III:8) [(IZ14N24N)3]", 100],
  ["I: Ac-EQEAIKKKIEAIEKLLQLTVWGIKQLQARILAVERYLK-NH2 / II: Ac-EQEAIKKKIEAIEKLLQLTVWGIKQLQARILAVERYLK-NH2 / III: Ac-EQEAIKKKIEAIEKLLQLTVWGIKQLQARILAVERYLK-NH2 (amide I:8-III:13, I:13-II:8, II:13-III:8) [(IZ14N24C)3]", 100]
]}
